Where these numbers come from: patent US20110245288A1

EXPERIMENTAL CONTEXT: human
RECORDED METRIC: Flux (nmol/cm^2/h)
Express your answer in nmol/cm^2/h, writing the number without its unit.

Exercise: Fill blank: measured Flux of the molecule CCOCCOCCOCCOC(=O)Oc1ccc2c3c1O[C@H]1[C@@]4(OC)CC[C@@]5(C[C@@H]4[C@](C)(O)C(C)(C)C)[C@@H](C2)N(CC2CC2)CC[C@]315 [Formula III] is ____.
Solution: 1.74

Exercise: Fill blank: measured Flux of the molecule CCOCCOCCOCCOCCOC(=O)Oc1ccc2c3c1O[C@H]1[C@@]4(OC)CC[C@@]5(C[C@@H]4[C@](C)(O)C(C)(C)C)[C@@H](C2)N(CC2CC2)CC[C@]315 [Formula II] is ____.
Solution: 0.31

Exercise: Fill blank: measured Flux of the molecule CCOCCOCCOC(=O)Oc1ccc2c3c1O[C@H]1[C@@]4(OC)CC[C@@]5(C[C@@H]4[C@](C)(O)C(C)(C)C)[C@@H](C2)N(CC2CC2)CC[C@]315 [Formula I, Buprenorphine 3,6-dioxaoctyl carbonate] is ____.
Solution: 1.24

Exercise: Fill blank: measured Flux of the molecule CO[C@]12CC[C@@]3(C[C@@H]1[C@](C)(O)C(C)(C)C)[C@H]1Cc4ccc(O)c5c4[C@@]3(CCN1CC1CC1)[C@H]2O5 [BUP, buprenorphine, reference compound] is ____.
Solution: 0.44

###

Kindly supply the reported Cumulative permeation values for the records listed here.
EXPERIMENTAL CONTEXT: human
Include the unit right after the number.

Exercise: Fill blank: measured Cumulative permeation of the molecule CCOCCOCCOCCOC(=O)Oc1ccc2c3c1O[C@H]1[C@@]4(OC)CC[C@@]5(C[C@@H]4[C@](C)(O)C(C)(C)C)[C@@H](C2)N(CC2CC2)CC[C@]315 [Formula III] is ____.
Solution: 23.9 ± 6.7 nmol

Exercise: Fill blank: measured Cumulative permeation of the molecule CO[C@]12CC[C@@]3(C[C@@H]1[C@](C)(O)C(C)(C)C)[C@H]1Cc4ccc(O)c5c4[C@@]3(CCN1CC1CC1)[C@H]2O5 [BUP, buprenorphine, reference compound] is ____.
Solution: 6.32 ± 2.16 nmol

Exercise: Fill blank: measured Cumulative permeation of the molecule CCOCCOCCOC(=O)Oc1ccc2c3c1O[C@H]1[C@@]4(OC)CC[C@@]5(C[C@@H]4[C@](C)(O)C(C)(C)C)[C@@H](C2)N(CC2CC2)CC[C@]315 [Formula I, Buprenorphine 3,6-dioxaoctyl carbonate] is ____.
Solution: 17.5 ± 4.0 nmol

Exercise: Fill blank: measured Cumulative permeation of the molecule CCOCCOCCOCCOCCOC(=O)Oc1ccc2c3c1O[C@H]1[C@@]4(OC)CC[C@@]5(C[C@@H]4[C@](C)(O)C(C)(C)C)[C@@H](C2)N(CC2CC2)CC[C@]315 [Formula II] is ____.
Solution: 4.5 ± 1.9 nmol

###

EXPERIMENTAL CONTEXT: human
RECORDED METRIC: Skin Disposition (µmol/g)
Express your answer in µmol/g, writing the number without its unit.

Exercise: Fill blank: measured Skin Disposition of the compound CO[C@]12CC[C@@]3(C[C@@H]1[C@](C)(O)C(C)(C)C)[C@H]1Cc4ccc(O)c5c4[C@@]3(CCN1CC1CC1)[C@H]2O5 [BUP, buprenorphine, reference compound] is ____.
Solution: 0.62

Exercise: Fill blank: measured Skin Disposition of the compound CCOCCOCCOCCOCCOC(=O)Oc1ccc2c3c1O[C@H]1[C@@]4(OC)CC[C@@]5(C[C@@H]4[C@](C)(O)C(C)(C)C)[C@@H](C2)N(CC2CC2)CC[C@]315 is ____.
Solution: 4.5

Exercise: Fill blank: measured Skin Disposition of the compound CCOCCOCCOC(=O)Oc1ccc2c3c1O[C@H]1[C@@]4(OC)CC[C@@]5(C[C@@H]4[C@](C)(O)C(C)(C)C)[C@@H](C2)N(CC2CC2)CC[C@]315 [Formula I, Buprenorphine 3,6-dioxaoctyl carbonate] is ____.
Solution: 1.0

Exercise: Fill blank: measured Skin Disposition of the compound CCOCCOCCOCCOC(=O)Oc1ccc2c3c1O[C@H]1[C@@]4(OC)CC[C@@]5(C[C@@H]4[C@](C)(O)C(C)(C)C)[C@@H](C2)N(CC2CC2)CC[C@]315 is ____.
Solution: 13.89
